- Test system: 60 different human tumor cell lines
- run_conditions: OVCAR-8 (Ovarian Cancer), five dose
measured_property: TGI

Solved entries:
smiles_structure	TGI
C[C@]12CCc3sc(Nc4cccc(O)c4)nc3C1=CC[C@@H]1[C@@H]2CC[C@]2(C)C(=O)CC[C@@H]12	>1.00E−4
C[C@]12CCc3sc(NCCc4ccccc4)nc3C1=CC[C@@H]1[C@@H]2CC[C@]2(C)C(=O)CC[C@@H]12	>1.00E−4
C[C@]12CCc3nc(N)sc3C1=CC[C@@H]1[C@@H]2CC[C@]2(C)C(=NNC(N)=O)CC[C@@H]12	3.63E−6
C[C@]12CC[C@H]3[C@@H](CC=C4c5sc(Nc6ccccc6)nc5CC[C@@]43C)[C@@H]1CC[C@@H]2O	1.49E−5
C[C@]12CCc3sc(Nc4ccc(F)cc4F)nc3C1=CC[C@@H]1[C@@H]2CC[C@]2(C)C(=O)CC[C@@H]12	>1.00E−4
C[C@]12CCc3nc(Nc4ccc(O)cc4)sc3C1=CC[C@@H]1[C@@H]2CC[C@]2(C)C(=O)CC[C@@H]12	>1.00E−4

Read the next record carefully.
Incoming: API: value(readout=TGI, system=60 different human tumor cell lines) for record C[C@]12CC[C@H]3[C@@H](CC=C4c5sc(-c6ccc(O)cc6)nc5CC[C@@]43C)[C@@H]1CC[C@@H]2O
Outgoing: >1.00E−4

---

Please respond with reported GI50 for every item in the list.
- System: 60 different human tumor cell lines
- experimental_details: cells
- run_conditions: UACC-257
Answers are plain numbers, in µM.

Solved entries:
smiles_structure	target_under_test	measured_property	readout_value
C[C@]12CC[C@H]3[C@@H](CC=C4c5sc(Nc6ccccc6)nc5CC[C@@]43C)[C@@H]1CC[C@@H]2O	60 different human tumor cell lines	GI50	2.54
C[C@]12CC[C@H]3[C@@H](CC=C4c5sc(-c6ccc(O)cc6)nc5CC[C@@]43C)[C@@H]1CC[C@@H]2O	60 different human tumor cell lines	GI50	11.9
C[C@]12CCc3sc(NCCc4ccccc4)nc3C1=CC[C@@H]1[C@@H]2CC[C@]2(C)C(=O)CC[C@@H]12	60 different human tumor cell lines	GI50	4.92

Read the next record carefully.
Incoming: API: value(readout=GI50, system=60 different human tumor cell lines) for record C[C@]12CCc3sc(Nc4cccc(O)c4)nc3C1=CC[C@@H]1[C@@H]2CC[C@]2(C)C(=O)CC[C@@H]12
Outgoing: 23.8

---

- Tested on: 60 different human tumor cell lines
- experimental_details: NCI Development Therapeutics Program 60 cell line screen, one dose
- Format: cell-based
- run_conditions: Leukemia, K-562
measured_property: Growth Percent
Form entry: enter the amount, then its unit.

Solved entries:
smiles_structure	measured_property	readout_value
C[C@]12CC[C@H]3[C@@H](CC=C4c5sc(-c6ccc(O)cc6)nc5CC[C@@]43C)[C@@H]1CC[C@@H]2O	Growth Percent	13.87%
C[C@]12CCc3sc(Nc4ccc(F)cc4F)nc3C1=CC[C@@H]1[C@@H]2CC[C@]2(C)C(=O)CC[C@@H]12	Growth Percent	2.15%
C[C@]12CCc3nc(N)sc3C1=CC[C@@H]1[C@@H]2CC[C@]2(C)C(=NNC(N)=O)CC[C@@H]12	Growth Percent	−38.55%
C[C@]12CCc3sc(Nc4cccc(O)c4)nc3C1=CC[C@@H]1[C@@H]2CC[C@]2(C)C(=O)CC[C@@H]12	Growth Percent	4.81%
C[C@]12CC[C@H]3[C@@H](CC=C4c5sc(Nc6ccccc6)nc5CC[C@@]43C)[C@@H]1CC[C@@H]2O	Growth Percent	4.96%

Please give Growth Percent for each item listed below.
1. C[C@]12CCc3sc(Nc4ccc(OC(F)(F)F)cc4)nc3C1=CC[C@@H]1[C@@H]2CC[C@]2(C)C(=O)CC[C@@H]12
2. C[C@]12CCc3nc(Nc4ccc(O)cc4)sc3C1=CC[C@@H]1[C@@H]2CC[C@]2(C)C(=O)CC[C@@H]12
3. C[C@]12CCc3sc(NCCc4ccccc4)nc3C1=CC[C@@H]1[C@@H]2CC[C@]2(C)C(=O)CC[C@@H]12

Outgoing:
1. 8.20%
2. 10.77%
3. 5.14%

---

Please respond with reported Growth Percent for every item in the list.
- Tested on: 60 different human tumor cell lines
- experimental_details: NCI Development Therapeutics Program 60 cell line screen, one dose
- Format: cell-based
- run_conditions: Renal Cancer, UO-31
Answers are plain numbers, in %.

Solved entries:
compound	target_under_test	readout_value
C[C@]12CCc3nc(Nc4ccc(O)cc4)sc3C1=CC[C@@H]1[C@@H]2CC[C@]2(C)C(=O)CC[C@@H]12 [IIa.35]	60 different human tumor cell lines	−48.83
C[C@]12CC[C@H]3[C@@H](CC=C4c5sc(Nc6ccccc6)nc5CC[C@@]43C)[C@@H]1CC[C@@H]2O [IIIa.10]	60 different human tumor cell lines	26.06
C[C@]12CCc3sc(NCCc4ccccc4)nc3C1=CC[C@@H]1[C@@H]2CC[C@]2(C)C(=O)CC[C@@H]12 [IIa.2]	60 different human tumor cell lines	50.44

Please give Growth Percent for each item listed below.
1. C[C@]12CCc3sc(Nc4ccc(OC(F)(F)F)cc4)nc3C1=CC[C@@H]1[C@@H]2CC[C@]2(C)C(=O)CC[C@@H]12 [IIa.19]
2. C[C@]12CCc3sc(Nc4ccc(F)cc4F)nc3C1=CC[C@@H]1[C@@H]2CC[C@]2(C)C(=O)CC[C@@H]12 [IIa.10]

Outgoing:
54.33
42.87

---

- Tested on: 60 different human tumor cell lines
- run_conditions: read-out: LC50; A549/ATCC (Non-small Cell Lung Cancer), five dose
measured_property: CC50

smiles_structure	measured_property	readout_value
C[C@]12CCc3nc(Nc4ccc(O)cc4)sc3C1=CC[C@@H]1[C@@H]2CC[C@]2(C)C(=O)CC[C@@H]12	CC50	> 100 µM

Incoming: API: value(readout=CC50, system=60 different human tumor cell lines) for record C[C@]12CCc3nc(N)sc3C1=CC[C@@H]1[C@@H]2CC[C@]2(C)C(=NNC(N)=O)CC[C@@H]12
Outgoing: 7.51 µM

---

Please respond with reported SK-MEL-28 (% inhibition) for every item in the list.
- System: SK-MEL-28
- experimental_details: Melanoma cytotoxicity assay (resazurin)
- Format: cell-based
- run_conditions: SK-MEL-28 melanoma cells, 24 hours with compound, resazurin; concentration not given
- Method: Cytotoxicity Assay: Melanoma cells (˜4000 cells in each well) were incubated in a 96 well plates at 37° C. in 5% CO2 for 24 hours. Compounds were added in triplicates and the plate was further incubated for 24 hours. […] Next day resazurin was added and the plate was further incubated for 6 hours followed by reading the plate at 544 nm (excitation) and 590 nm (emission) using BMG Labtech Fluostar Optima plate reader. IC50 values were determined by using Graphpad Prism. […]
Answers are plain numbers, in %.

Solved entries:
smiles_structure	SK-MEL-28 (% inhibition), %
COc1ccc(OC)c(Nc2nc3c(s2)CC[C@@]2(C)C3=CC[C@@H]3[C@@H]2CC[C@]2(C)C(=O)CC[C@@H]32)c1	86
CCNc1nc2c(s1)CC[C@@]1(C)C2=CC[C@@H]2[C@@H]1CC[C@]1(C)C(=O)CC[C@@H]21	67
C[C@]12CCc3sc(Nc4ncccn4)nc3C1=CC[C@@H]1[C@@H]2CC[C@]2(C)C(=O)CC[C@@H]12	4

Read the next record carefully.
Incoming: API: value(readout=SK-MEL-28 (% inhibition), system=SK-MEL-28) for record C[C@]12CCc3sc(Nc4ccc(C(=O)O)cc4)nc3C1=CC[C@@H]1[C@@H]2CC[C@]2(C)C(=O)CC[C@@H]12
Outgoing: 78

---

- System: 60 different human tumor cell lines
- run_conditions: read-out: LC50; SNB-75 (CNS Cancer), five dose
measured_property: CC50 (µM)
Numbers only, in µM.

Incoming: Looking for the measured CC50 of C[C@]12CCc3nc(N)sc3C1=CC[C@@H]1[C@@H]2CC[C@]2(C)C(=NNC(N)=O)CC[C@@H]12 , can you help?
Outgoing: 7.76

---

- System: 60 different human tumor cell lines
- experimental_details: cells
- run_conditions: HOP-62
Please respond with reported GI50 for every item in the list.
Answers are plain numbers, in µM.

Solved entries:
smiles_structure	readout_value
C[C@]12CCc3sc(NCCc4ccccc4)nc3C1=CC[C@@H]1[C@@H]2CC[C@]2(C)C(=O)CC[C@@H]12	8.52
C[C@]12CCc3sc(Nc4cccc(O)c4)nc3C1=CC[C@@H]1[C@@H]2CC[C@]2(C)C(=O)CC[C@@H]12	22.4
C[C@]12CC[C@H]3[C@@H](CC=C4c5sc(-c6ccc(O)cc6)nc5CC[C@@]43C)[C@@H]1CC[C@@H]2O	5.25

Please give GI50 for each item listed below.
1. C[C@]12CCc3sc(Nc4ccc(OC(F)(F)F)cc4)nc3C1=CC[C@@H]1[C@@H]2CC[C@]2(C)C(=O)CC[C@@H]12
2. C[C@]12CC[C@H]3[C@@H](CC=C4c5sc(Nc6ccccc6)nc5CC[C@@]43C)[C@@H]1CC[C@@H]2O

Outgoing:
[1.92, 2.47]
